# System: PIK3CA(E545K)
# conditionDetails: Compound Concentration (nM):1000;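 further: KINOMEscan scanMAX binding as percent activity remaining versus control; lower means stronger binding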
propertyMeasured: Percent Control (%)
Field: numeric (%). Do not append units.

Form: compound = CCc1ccc(Oc2nccc(-c3c(-c4ccc(F)cc4)ncn3C3CCNCC3)n2)cc1 ; Percent Control = 92

Form: compound = CC1=C(C(=O)Nc2ccc3[nH]ncc3c2)C(c2ccc(Cl)c(Cl)c2)CC(=O)N1 (stereo not drawn) [GSK299115A] ; Percent Control = 73

Form: compound = COc1cccc(-c2c[nH]c3c(N/N=C/c4ccncc4)ncnc23)c1 [GW814408X] ; Percent Control = 100

Form: compound = COc1cc(C=NNc2ncnc3c2cnn3-c2ccccc2)ccc1O [GW513184X] ; Percent Control = 100

Form: compound = COc1cc2ncnc(Nc3ccc4c(cnn4Cc4ccccc4)c3)c2cc1OC.Cl [GW282449A] ; Percent Control = 100

Form: compound = Nc1ncnc2occ(-c3ccc(NC(=O)Nc4cc(C(F)(F)F)ccc4F)cc3)c12 [GW770249X] ; Percent Control = 100

Form: compound = CCS(=O)(=O)c1ccc(OC)c(Nc2ncc(-c3cccc(F)c3)o2)c1 [GW621970X] ; Percent Control = 100

Form: compound = COc1ccc2c(-c3ccnc(Nc4cccc(OC(F)(F)F)c4)n3)cnn2n1 [GW810372X] ; Percent Control = 97

Form: compound = CN1CCN(C(=O)c2ccc(NC(=O)Nc3ccc(N(C)c4ccnc(Nc5ccc(CS(C)(=O)=O)cc5)n4)cc3)cc2)CC1.Cl [GW830263A] ; Percent Control = 97

###

# Test system: KIT-autoinhibited
# conditionDetails: Compound Concentration (nM):1000
For each record, write down the corresponding Percent Control.
Field: numeric (%). Do not append units.

Form: compound = Cl.O=C(O[C@H]1CN[C@H](C#Cc2cc3ncnc(Nc4ccc5c(cnn5Cc5ccccc5)c4)c3s2)C1)N1CCOCC1 [GSK200398A] ; Percent Control = 96

Form: compound = Cc1cc(O)cc(C)c1/C=C/c1cncc(C(N)=O)c1 [GW435821X] ; Percent Control = 77

Form: compound = NS(=O)(=O)c1ccc(N/N=C2\C(=O)Nc3ccc(C(=O)NCc4ccncc4)cc32)cc1 [GW300657X] ; Percent Control = 99

Form: compound = CN1CCN(C(=O)c2ccc(NC(=O)Nc3ccc(N(C)c4ccnc(Nc5ccc(CS(C)(=O)=O)cc5)n4)cc3)cc2)CC1.Cl [GW830263A] ; Percent Control = 35

###

# Tested on: AURKA
# conditionDetails: Compound Concentration (nM):1000
For each record, write down the corresponding Percent Control.
Field: numeric (%). Do not append units.

Form: molecule = O=C1Nc2ccc(C(=O)c3ccco3)cc2C1=Cc1cc(Cl)c(O)c(Cl)c1 [GW406108X] ; Percent Control = 35

Form: molecule = C/C(Nc1ccc(S(N)(=O)=O)cc1)=C1/C(=O)Nc2ccccc21 [GW335962X] ; Percent Control = 66

Form: molecule = COc1ccc2[nH]c3c4[nH]c5ccc(OC)cc5c4c4c(c3c2c1)C(=O)NC4=O [GW296115X] ; Percent Control = 57

Form: molecule = COc1ccc2c(-c3ccnc(Nc4cccc(OC(F)(F)F)c4)n3)cnn2n1 [GW810372X] ; Percent Control = 100

Form: molecule = NS(=O)(=O)c1ccc(N/N=C2\C(=O)Nc3ccc(-c4cnco4)cc32)cc1 [GW276655] ; Percent Control = 70

Provenance of the data: paper PMC7826789
